- Test system: NCI-H650 (Lung Adenocarcinoma)
- measurement-notes: Bliss excess, mean over the matrix (fraction); higher = more synergy;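 note: after 72 h of two-drug dosing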
Record form. Attribute: Bliss excess. Fill in for each entry.
Give bare numbers.

Would you please look over these solved cases?
COc1nnc2ccc(N3CCC(c4ccc(OCCN5CCN(C)C(=O)[C@H]5C)cc4)CC3)nn12 [AZD5153] + Cn1cnc2c(F)c(Nc3ccc(Br)cc3Cl)c(C(=O)NOCCO)cc21 [Selumetinib] (first compound max 1 µM, 7x7, partner max 10 µM) ... 0.0339
COc1cccc(OCCCN)c1-c1cc(Nc2cnc(C#N)cn2)n[nH]1 [Prexasertib] + O=C(c1cc(Cc2n[nH]c(=O)c3ccccc23)ccc1F)N1CCN(C(=O)C2CC2)CC1 [Olaparib] (first compound max 1 µM, 7x7, partner max 10 µM) ... -0.0442
COc1nnc2ccc(N3CCC(c4ccc(OCCN5CCN(C)C(=O)[C@H]5C)cc4)CC3)nn12 [AZD5153] + C[C@@H]1COCCN1C2=NC(=NC(=C2)C3(CC3)[S@](=N)(=O)C)C4=C5C=CNC5=NC=C4 [AZD6738] (first compound max 1 µM, 7x7, partner max 10 µM) ... 0.0125

Would you mind listing Bliss excess for each of the following compounds?
1. CN(CCO)CC[C@H](CSc1ccccc1)Nc1ccc(S(=O)(=O)NC(=O)c2ccc(N3CCC([C@@H](O)c4ccccc4-c4ccc(Cl)cc4)CC3)cc2)cc1S(=O)(=O)C(F)(F)F [AZD4320] + Cc1cc2ncnn2cc1Nc1ncc2c(n1)n(C1CCOCC1)c(=O)n2C [AZD7648] (first compound max 1 µM, 7x7, partner max 10 µM)
2. C=CCn1c(=O)c2cnc(Nc3ccc(N4CCN(C)CC4)cc3)nc2n1-c1cccc(C(C)(C)O)n1 [AZD1775] + C[C@@H]1COCCN1C2=NC(=NC(=C2)C3(CC3)[S@](=N)(=O)C)C4=C5C=CNC5=NC=C4 [AZD6738] (first compound max 1 µM, partner max 10 µM)
3. Cc1cc2ncnn2cc1Nc1ncc2c(n1)n(C1CCOCC1)c(=O)n2C [AZD7648] + CN(C)CCCOc1ccc(-c2ccc3ncc4c(c3c2)n(C2CCOCC2)c(=O)n4C)cn1 [AZD0156] (first compound max 10 µM, 7x7, partner max 1 µM)
4. CC(=O)c1c(C)c2cnc(Nc3ccc(N4CCNCC4)cn3)nc2n(C2CCCC2)c1=O [Palbociclib] + Cc1c2c(nn1C)CSCc1cc(n(C)n1)CSc1cc(c3ccccc3c1)OCCCc1c(C(=O)O)n(C)c3c-2c(Cl)ccc13 [AZD5991] (first compound max 10 µM, 7x7, partner max 1 µM)

[-0.021, 0.0062, 0.0061, -0.0583]

###

- Tested on: OACM5-1 (Esophageal Adenocarcinoma)
- measurement-notes: Bliss excess, mean over the matrix (fraction); higher = more synergy
Record form. Attribute: Bliss excess. Fill in for each entry.
Give bare numbers.

Would you please look over these solved cases?
CN(CCO)CC[C@H](CSc1ccccc1)Nc1ccc(S(=O)(=O)NC(=O)c2ccc(N3CCC([C@@H](O)c4ccccc4-c4ccc(Cl)cc4)CC3)cc2)cc1S(=O)(=O)C(F)(F)F [AZD4320] + Cn1cnc2c(F)c(Nc3ccc(Br)cc3Cl)c(C(=O)NOCCO)cc21 [Selumetinib] (first compound max 1 µM, 7x7, partner max 3 µM) ... 0.0624
Cc1c2c(nn1C)CSCc1cc(n(C)n1)CSc1cc(c3ccccc3c1)OCCCc1c(C(=O)O)n(C)c3c-2c(Cl)ccc13 [AZD5991] + Cn1cnc2c(F)c(Nc3ccc(Br)cc3Cl)c(C(=O)NOCCO)cc21 [Selumetinib] (first compound max 1 µM, 7x7, partner max 3 µM) ... 0.0491
CN(CCO)CC[C@H](CSc1ccccc1)Nc1ccc(S(=O)(=O)NC(=O)c2ccc(N3CCC([C@@H](O)c4ccccc4-c4ccc(Cl)cc4)CC3)cc2)cc1S(=O)(=O)C(F)(F)F [AZD4320] + CCN(CCO)CCCOc1ccc2c(Nc3cc(CC(=O)Nc4cccc(F)c4)[nH]n3)ncnc2c1 [AZD2811] (first compound max 1 µM, 7x7, partner max 1 µM) ... 0.0473
COc1nnc2ccc(N3CCC(c4ccc(OCCN5CCN(C)C(=O)[C@H]5C)cc4)CC3)nn12 [AZD5153] + Cn1cnc2c(F)c(Nc3ccc(Br)cc3Cl)c(C(=O)NOCCO)cc21 [Selumetinib] (first compound max 1 µM, 7x7, partner max 10 µM) ... -0.0306
C=CCn1c(=O)c2cnc(Nc3ccc(N4CCN(C)CC4)cc3)nc2n1-c1cccc(C(C)(C)O)n1 [AZD1775] + O=C(c1cc(Cc2n[nH]c(=O)c3ccccc23)ccc1F)N1CCN(C(=O)C2CC2)CC1 [Olaparib] (first compound max 1 µM, partner max 10 µM) ... -0.0363

Would you mind listing Bliss excess for each of the following molecules?
1. CC(=O)c1c(C)c2cnc(Nc3ccc(N4CCNCC4)cn3)nc2n(C2CCCC2)c1=O [Palbociclib] + CN(CC[C@H](CSC1=CC=CC=C1)NC2=C(C=C(C=C2)S(=O)(=O)NC(=O)C3=CC=C(C=C3)N4CCC(CC4)[C@H](C5=CC=CC=C5C6=CC=C(C=C6)Cl)O)S(=O)(=O)C(F)(F)F)CCO [AZD4320] (first compound max 10 µM, 7x7, partner max 1 µM)
2. Cn1cnc2c(F)c(Nc3ccc(Br)cc3Cl)c(C(=O)NOCCO)cc21 [Selumetinib] + CC(C)n1c(=O)n(C)c2cnc3cc(F)c(-c4ccc(OCCCN5CCCCC5)nc4)cc3c21 [AZD1390] (first compound max 10 µM, 7x7, partner max 0.3 µM)
3. NC1(C(=O)N[C@@H](CCO)c2ccc(Cl)cc2)CCN(c2ncnc3[nH]ccc23)CC1 [Capivasertib] + COc1nnc2ccc(N3CCC(c4ccc(OCCN5CCN(C)C(=O)[C@H]5C)cc4)CC3)nn12 [AZD5153] (first compound max 10 µM, 7x7, partner max 1 µM)
4. CCN(CCO)CCCOc1ccc2c(Nc3cc(CC(=O)Nc4cccc(F)c4)[nH]n3)ncnc2c1 [AZD2811] + C[C@@H]1COCCN1C2=NC(=NC(=C2)C3(CC3)[S@](=N)(=O)C)C4=C5C=CNC5=NC=C4 [AZD6738] (first compound max 1 µM, 7x7, partner max 10 µM)
5. Cn1cnc2c(F)c(Nc3ccc(Br)cc3Cl)c(C(=O)NOCCO)cc21 [Selumetinib] + C=CCn1c(=O)c2cnc(Nc3ccc(N4CCN(C)CC4)cc3)nc2n1-c1cccc(C(C)(C)O)n1 [AZD1775] (first compound max 10 µM, partner max 1 µM)
6. COc1nnc2ccc(N3CCC(c4ccc(OCCN5CCN(C)C(=O)[C@H]5C)cc4)CC3)nn12 [AZD5153] + CN(CC[C@H](CSC1=CC=CC=C1)NC2=C(C=C(C=C2)S(=O)(=O)NC(=O)C3=CC=C(C=C3)N4CCC(CC4)[C@H](C5=CC=CC=C5C6=CC=C(C=C6)Cl)O)S(=O)(=O)C(F)(F)F)CCO [AZD4320] (first compound max 1 µM, 7x7, partner max 1 µM)
7. CC1(C)CCC(CN2CCN(c3ccc(C(=O)NS(=O)(=O)c4ccc(NCC5CCOCC5)c([N+](=O)[O-])c4)c(Oc4cnc5[nH]ccc5c4)c3)CC2)=C(c2ccc(Cl)cc2)C1 [Venetoclax] + Cc1cc2ncnn2cc1Nc1ncc2c(n1)n(C1CCOCC1)c(=O)n2C [AZD7648] (first compound max 1 µM, 7x7, partner max 10 µM)

0.0021
-0.0273
-0.019
-0.0628
-0.0964
0.0552
-0.0269

Query (molecule): CCc1c2c(nc3ccc(O)cc13)-c1cc3c(c(=O)n1C2)COC(=O)[C@]3(O)CC [SN-38] + O=C(c1cc(Cc2n[nH]c(=O)c3ccccc23)ccc1F)N1CCN(C(=O)C2CC2)CC1 [Olaparib] (first compound max 0.3 µM, 7x7, partner max 10 µM) ; field requested: Bliss excess
0.0474
